System: BJ
PROTOCOL_DETAILS: Induction of cell death in human BJ cells expressing TERT, LT, ST and RAS G12V mutant genes cells in presence of MEK 1/2 inhibitor by trypan blue exclusion method
Assay type: functional, cell-based
REPORTED_ENDPOINT: IC50 (nM)
Quick reminder: number only, in nM, skip the unit.

stdin: State the recorded IC50 for this entry: CCOc1ccccc1-n1c(C(C)N2CCN(C(=O)COc3ccc(Cl)cc3)CC2)nc2ccccc2c1=O (stereo unspecified) [ERASTIN]
stdout: 2000

###

System: BJ
PROTOCOL_DETAILS: Induction of cell death in human BJ cells expressing TERT, LT, ST and RAS G12V mutant genes in presence of U0126 by trypan blue exclusion method
Type: functional, cell-based
REPORTED_ENDPOINT: IC50 (µM)
Quick reminder: number only, in µM, skip the unit.

stdin: Query the reported IC50 for BJ; item: CCOc1ccccc1-n1c(C(C)N2CCN(C(=O)COc3ccc(Cl)cc3)CC2)nc2ccccc2c1=O (stereo unspecified)
stdout: 31.2

###

Test system: U2OS
PROTOCOL_DETAILS: Induction of cell death in human U2OS cells
Type: functional, cell-based
COND: Homo sapiens, U2OS
REPORTED_ENDPOINT: EC50 (µM)
Quick reminder: number only, in µM, skip the unit.

stdin: State the recorded EC50 for this entry: CCOc1ccccc1-n1c(C(C)N2CCN(C(=O)COc3ccc(Cl)cc3)CC2)nc2ccccc2c1=O (stereo unspecified)
stdout: 6

###

Tested on: A673
PROTOCOL_DETAILS: Induction of cell death in human A673 cells
Assay type: functional, cell-based
COND: Homo sapiens, A673
REPORTED_ENDPOINT: EC50 (µM)
Quick reminder: number only, in µM, skip the unit.

stdin: State the recorded EC50 for this entry: CCOc1ccccc1-n1c(C(C)N2CCN(C(=O)COc3ccc(Cl)cc3)CC2)nc2ccccc2c1=O (stereo unspecified)
stdout: 30

###

PROTOCOL_DETAILS: Induction of cell death in human Hs51.T cells
Type: functional, cell-based
COND: Homo sapiens
REPORTED_ENDPOINT: EC50
Include the unit right after the number.

stdin: State the recorded EC50 for this entry: CCOc1ccccc1-n1c(C(C)N2CCN(C(=O)COc3ccc(Cl)cc3)CC2)nc2ccccc2c1=O (stereo unspecified)
stdout: 12 µM

###

System: SVR
PROTOCOL_DETAILS: Induction of cell death in human SVR cells
Assay type: functional, cell-based
COND: Mus musculus, SVR
REPORTED_ENDPOINT: pEC50
Expect pEC50 as a plain number equal to -log10 of the molar concentration.

stdin: State the recorded pEC50 for this entry: CCOc1ccccc1-n1c(C(C)N2CCN(C(=O)COc3ccc(Cl)cc3)CC2)nc2ccccc2c1=O (stereo unspecified)
stdout: 5.60

###

System: HT-1080
PROTOCOL_DETAILS: Induction of cell death in human HT1080 cells in presence of U0126 by trypan blue exclusion method
Format: functional, cell-based
REPORTED_ENDPOINT: IC50 (µM)
Quick reminder: number only, in µM, skip the unit.

stdin: State the recorded IC50 for this entry: CCOc1ccccc1-n1c(C(C)N2CCN(C(=O)COc3ccc(Cl)cc3)CC2)nc2ccccc2c1=O (stereo unspecified) [ERASTIN]
stdout: 3.4

###

Test system: HT-1080
PROTOCOL_DETAILS: Induction of cell death in human HT1080 cells in presence of MEK inhibitor 2 by trypan blue exclusion method
Type: functional, cell-based
REPORTED_ENDPOINT: IC50 (nM)
Quick reminder: number only, in nM, skip the unit.

stdin: Query the reported IC50 for HT-1080; item: CCOc1ccccc1-n1c(C(C)N2CCN(C(=O)COc3ccc(Cl)cc3)CC2)nc2ccccc2c1=O (stereo unspecified)
stdout: 1300
